tested on: Magnetotactic bacteria of the Magnetospirillum magneticum species, strain AMB-1; assay: Magnetosome production after 7 days of culture (iron oxide concentration of extracted magnetosome chains, absorption at 480 nm); type: cell-based; settings: chelating agent 4 μM
measured.property: magnetosome production (iron oxide concentration) compared with the control bacteria

Known magnetosome production (iron oxide concentration) compared with the control bacteria results, listed for orientation:
molecule | result
NCCCC(O)(P(=O)(O)O)P(=O)(O)O [alendronate, reference compound] | increased
CCN(CC)c1ccc2c(-c3ccccc3C(=O)O)c3ccc(=[N+](CC)CC)cc-3oc2c1 | increased
O=C(O)CC(O)(CC(=O)O)C(=O)O | increased
O=C(O)CN(CC(=O)O)Cc1cc2c(cc1O)Oc1cc(O)c(CN(CC(=O)O)CC(=O)O)cc1C21OC(=O)c2ccccc21 | increased

# magnetosome production (iron oxide concentration) compared with the control bacteria (molecule: O=S(=O)(O)CCCNC1CCCCC1 ) is increased

Query O=C(O)CN(CCN(CC(=O)O)CC(=O)O)CC(=O)O yields magnetosome production (iron oxide concentration) compared with the control bacteria of increased

The measurements presented in this section are drawn from patent US9359589B2.
